Tested on: SEM cells
Assay: AUC of viability dose-response curve (% viability x log10 dose units); higher = less sensitive
Conditions: RPMI 5 mM glucose + 10% dialyzed FBS; 48 h
measurement.label: AUC of viability dose-response curve
Numbers only.

Here are 7 molecules together with their reported answers.
molecule	AUC of viability dose-response curve
N=C1S/C(=C\c2ccc(-c3ccc4c(c3)C(=O)NC4=O)o2)C(=O)N1c1ccc(Br)cc1	458
COc1ccc(-n2c(C)c([N+](=O)[O-])c3ccc(O)cc32)cc1	468
CN1CCN(CC1)C2=CC3=C([NH]C(=N3)C/4=C(\N)C5=C(F)C=CC=C5NC4=O)C=C2	152
CN1CCN2c3ccccc3Cc3ccccc3C2C1 (stereo not drawn)	453
OC1CCC(CC1)N2\C=N/C3=C(C2=N)C(=C([N]3CC4=CC=CC=C4)C5=CC=CC=C5)C6=CC=CC=C6 (stereo not drawn)	353
CCC(=O)N1CCN(CC1)C2=C(C=C(C=C2)N3C(=O)\C=C/C4=C3C5=CC(=CC=C5N=C4)C6=CN=C7C=CC=CC7=C6)C(F)(F)F	300
CCCCN1CCC(CNC(=O)c2c3n(c4ccccc24)CCCO3)CC1	462

Next molecule, please.
query: Query: AUC of viability dose-response curve; subject: CC[C@H]1OC(=O)[C@H](C)[C@@H](O[C@H]2C[C@@](C)(OC)[C@@H](O)[C@H](C)O2)[C@H](C)[C@@H](O[C@@H]2O[C@H](C)C[C@H](N(C)C)[C@H]2O)[C@](C)(O)C[C@@H](C)/C(=N\OCOCCOC)[C@H](C)[C@@H](O)[C@]1(C)O
result: 465

---

Test system: SEM cells
Test: cell viability relative to DMSO control; higher = less cytotoxic
Conditions: HPLM + 10% dialyzed FBS; 48 h; 1.71 µM
measurement.label: cell viability
Kindly format the answer as number then unit.

Study these solved cases before continuing.
molecule	measured.target	measurement.label	reported
OC1CCC(CC1)N2\C=N/C3=C(C2=N)C(=C([N]3CC4=CC=CC=C4)C5=CC=CC=C5)C6=CC=CC=C6 (stereo not given)	SEM cells	cell viability	47.2%
Cc1nnc(C(C)C)n1[C@@H]1C[C@H]2CC[C@@H](C1)N2CC[C@H](NC(=O)C1CCC(F)(F)CC1)c1ccccc1	SEM cells	cell viability	98%
O=c1oc2cc(O)ccc2s1	SEM cells	cell viability	93.9%
Clc1ccc(C(Cn2ccnc2)OCc2c(Cl)cccc2Cl)c(Cl)c1 (stereo not given)	SEM cells	cell viability	117%

Proceeding to the next molecule to report its cell viability.
query: Using the record for CC[C@H](C)C(=O)O[C@H]1C[C@@H](C)\C=C2\C=C/[C@H](C)[C@H](CC[C@@H]3C[C@@H](O)CC(=O)O3)[C@@H]12 , report its cell viability.
result: 86%

---

Test system: SEM cells
Experiment: cell viability relative to DMSO control; higher = less cytotoxic
Conditions: HPLM + 10% dialyzed FBS; 48 h; 0.0211 µM
measurement.label: cell viability (%)
One number for each entry, in %.

Take a look at these entries with their results.
molecule	endpoint.unit	cell viability
CC[C@H]1OC(=O)[C@H](C)[C@@H](O[C@H]2C[C@@](C)(OC)[C@@H](O)[C@H](C)O2)[C@H](C)[C@@H](O[C@@H]2O[C@H](C)C[C@H](N(C)C)[C@H]2O)[C@](C)(O)C[C@@H](C)/C(=N\OCOCCOC)[C@H](C)[C@@H](O)[C@]1(C)O	%	95.3
CCN(CC)CCCC(C)Nc1ccnc2cc(Cl)ccc12 (stereo not drawn)	%	121

Proceed to the following item.
query: Using the record for C[C@]12CC[C@H]3[C@@H](CC[C@@]45O[C@@H]4C(O)=C(C#N)C[C@]35C)[C@@H]1CC[C@@H]2O , report its cell viability.
result: 97.3

---

System: SEM cells
Assay: cell viability relative to DMSO control; higher = less cytotoxic
Conditions: RPMI 5 mM glucose + 10% FBS; 48 h; 1.71 µM
So I've got a bunch of compounds here, and I need their cell viability values.
One number for each entry, in %.

compound	cell viability [%]
COc1cccc(OC)c1-c1cc(C(=O)NC2(C(=O)O)C3CC4CC(C3)CC2C4)nn1-c1ccnc2cc(Cl)ccc12 (stereo not drawn)	110
C/C=C(\C)C(=O)N[C@@H](c1ccccc1)[C@@H](O)C(=O)O[C@H]1C[C@@]2(O)[C@@H](OC(=O)c3ccccc3)[C@@H]3[C@]4(OC(C)=O)CO[C@@H]4C[C@H](O)[C@@]3(C)C(=O)[C@H](OC(C)=O)C(=C1C)C2(C)C	14.9

Continue with the compound presented below.
query: Using the record for Cc1nnc(C(=O)NC(C)(C)c2nc(C(=O)NCc3ccc(F)cc3)c(O)c(=O)n2C)o1 , report its cell viability.
result: 80.8

---

System: SEM cells
Test: cell viability relative to DMSO control; higher = less cytotoxic
Conditions: HPLM + 10% dialyzed FBS; 48 h; 15.4 µM
Friendly reminder: cell viability below 60% is 1 (yes), at or above is 0 (no).

chemical.smiles	label.class
O=C(O)c1cccc(-c2noc(-c3ccccc3F)n2)c1	0 (no)
N#CC1(c2cccc(C(=O)Nc3cc(Oc4ccc5nc(NC(=O)C6CC6)sc5n4)ccc3F)c2Cl)CC1	1 (yes)
Cc1noc(N[S+](=O)([O-])c2ccc(N)cc2)c1C	0 (no)
CCC(=O)N1CCN(CC1)C2=C(C=C(C=C2)N3C(=O)\C=C/C4=C3C5=CC(=CC=C5N=C4)C6=CN=C7C=CC=CC7=C6)C(F)(F)F	1 (yes)
COc1cc(C[C@@H](CO)[C@H](CO)Cc2ccc(O)c(OC)c2)ccc1O	0 (no)

query: Strictly below 60%: is that where cell viability of O=C1\C=C(OC2=C(C=CC=C12)C3=CC=CC4=C3SC5=C4C=CC=C5)\N6CCOCC6 sits?
result: 0 (no)

query: Identify whether the molecule CCOc1cc(N2CCC(O)CC2)ccc1Nc1ncc2c(n1)N(C)c1ccccc1C(=O)N2C records cell viability below 60%.
result: 0 (no)

---

System: P12-Ichikawa
Assay: AUC of viability dose-response curve (% viability x log10 dose units); higher = less sensitive
Settings: RPMI 5 mM glucose + 10% dialyzed FBS; 48 h
# Satisfied = AUC of viability dose-response curve below 400 (exclusive); Not satisfied = AUC of viability dose-response curve at/above 400

Illustrative cases are given below, each with its answer.
compound	label.class
c1ccc2c(CCNc3ccc(Nc4ccncc4)cc3)c[nH]c2c1	Not satisfied
COCCCC/C(=N\OCCN)c1ccc(C(F)(F)F)cc1	Satisfied
c1cc2c(cc1[C@H]1OC[C@H]3[C@@H]1CO[C@@H]3c1ccc3c(c1)OCO3)OCO2	Not satisfied
COc1cc2cc(c1Cl)N(C)C(=O)C[C@H](OC(=O)C(C)C)[C@]1(C)O[C@@H]1[C@H](C)[C@@H]1C[C@@](O)(NC(=O)O1)[C@H](OC)/C=C/C=C(\C)C2	Satisfied
CCOc1ccccc1N/N=C1/C(=O)N(c2nc(-c3ccccc3)cs2)N=C1C	Not satisfied
C[S+](=O)([O-])OCCCCO[S+](C)(=O)[O-]	Not satisfied

API: the following record is the query input.
query: Dear reviewer, please state whether Cc1nc2ccc(CN(C)c3ccc(C(=O)N[C@@H](CCC(=O)O)C(=O)O)s3)cc2c(=O)[nH]1 has AUC of viability dose-response curve strictly beneath 400.
result: Satisfied

---

Test system: SEM cells
Assay: cell viability relative to DMSO control; higher = less cytotoxic
Conditions: HPLM + 10% dialyzed FBS; 48 h; 1.71 µM
measurement.label: cell viability (%)
Give bare numbers, in %.

compound	cell viability [%]
COc1cc(N2CCC(N3CCN(C)CC3)CC2)ccc1Nc1ncc(Cl)c(Nc2ccccc2[S+](=O)([O-])C(C)C)n1	19.3

List reported cell viability for each of these compounds:
1. NCCOc1cc(C(=O)Nc2cc(OCCN)c3ccccc3n2)nc(C(=O)Nc2cc(OCCN)c3ccccc3n2)c1
2. COc1cc2c(cc1O)CCC1C2CC[C@@]2(C)C1CC[C@@H]2O (some centres undefined)
3. CN(C)C(=O)[C@H](O)[C@H](Cc1ccccc1)NC(=O)c1cc2cc(Cl)ccc2[nH]1

result:
1. 21.5
2. 73.2
3. 86.1

---

System: NOMO1
Experiment: cell viability relative to DMSO control; higher = less cytotoxic
Details: HPLM + 10% dialyzed FBS; 48 h; 1.71 µM
measurement.label: cell viability (%)
Give bare numbers, in %.

chemical.smiles	reported
Cc1nnc(C(=O)NC(C)(C)c2nc(C(=O)NCc3ccc(F)cc3)c(O)c(=O)n2C)o1	101

Below are some compounds; for each one, tell me its cell viability.
1. CN(CC(=O)N(Cc1ccc(C2CCCCC2)cc1)c1ccc(C(=O)O)c(O)c1)[S+](=O)([O-])c1c(F)c(F)c(F)c(F)c1F
2. c1ccc2c(CN3CCNCC3)cccc2c1
3. COc1cc2c(cc1OC)CN(CCc1ccc(NC(=O)c3cccc4c(=O)c5cccc(OC)c5[nH]c34)cc1)CC2

result:
1: 102; 2: 112; 3: 45
